Tested on: Acinetobacter baumannii
EXPERIMENT_NOTES: Antibacterial activity against Acinetobacter baumannii 19606 assessed as bacterial growth inhibition incubated for 16 hrs by broth microdilution method
Type: functional
RECORDED_ENDPOINT: MIC

Here are 6 compounds together with their reported answers.
COMPOUND | MIC
CCC[C@@H]1Cc2cc3c(c(O)c2C(=O)O1)-c1c(c(OC)c2oc4ccc(O[C@H]5C[C@@H](O)[C@H](O[C@H]6C[C@@H](O)[C@H](O[C@H]7C[C@@H](OC)[C@H](O)[C@@H](C)O7)[C@@H](C)O6)[C@@H](C)O5)c(O)c4c(=O)c2c1O)C[C@H]3O | > 64 µg/mL
O=C(O)c1cn(C2CC2)c2cc(N3CCNCC3)c(F)cc2c1=O [CIPROFLOXACIN] | 0.125 µg/mL
CCC[C@@H]1Cc2cc3c(c(O)c2C(=O)O1)-c1c(c(OC)c2oc4ccc(O)c(O)c4c(=O)c2c1O)[C@H](O)[C@H]3O | 64 µg/mL
CCCC(=O)Cc1cc2c(c(O)c1C(=O)O)-c1cc3c(c(O)c1CC2)C(=O)c1c(O)cc(O)cc1C3=O | > 64 µg/mL
CCC[C@@H]1Cc2cc3c(c(O)c2C(=O)O1)-c1c(c(OC)c2oc4ccc(O[C@H]5C[C@@H](O)[C@H](O[C@H]6C[C@@H](O)[C@H](O[C@H]7C[C@@H](O)[C@H](O)[C@@H](C)O7)[C@@H](C)O6)[C@@H](C)O5)c(O)c4c(=O)c2c1O)[C@H](O)[C@H]3O | > 64 µg/mL
CCC[C@@H]1Cc2cc3c(c(O)c2C(=O)O1)-c1c(c(OC)c2oc4ccc(O[C@H]5C[C@@H](O)[C@H](O)[C@@H](C)O5)c(O)c4c(=O)c2c1O)[C@H](O)[C@H]3O | > 64 µg/mL

Ask: Notebook entry, Acinetobacter baumannii assay: MIC of CCC[C@@H]1Cc2cc3c(c(O)c2C(=O)O1)-c1c(c(OC)c2oc4ccc(O[C@H]5C[C@@H](O)[C@H](O[C@H]6C[C@@H](O)[C@H](O[C@H]7C[C@@H](OC)[C@H](O)[C@@H](C)O7)[C@@H](C)O6)[C@@H](C)O5)c(O)c4c(=O)c2c1O)[C@H](O)[C@H]3O = ?
Reply: > 64 µg/mL

---

Tested on: Staphylococcus aureus
EXPERIMENT_NOTES: Antibacterial activity against methicillin-resistant Staphylococcus aureus 669 assessed as bacterial growth inhibition incubated for 16 hrs by broth microdilution method
Type: functional
Measured MIC, listed per entry.
Report only the number, with the unit µg/mL understood.

Previously resolved entries follow.
SAMPLE_SMILES | MEASURED_VALUE
CCC[C@@H]1Cc2cc3c(c(O)c2C(=O)O1)-c1c(c(OC)c2oc4ccc(O)c(O)c4c(=O)c2c1O)[C@H](O)[C@H]3O | 8
CCCC(=O)Cc1cc2c(c(O)c1C(=O)O)-c1cc3c(c(O)c1CC2)C(=O)c1c(O)cc(O)cc1C3=O | 16
CCC[C@@H]1Cc2cc3c(c(O)c2C(=O)O1)-c1c(c(OC)c2oc4ccc(O[C@H]5C[C@@H](O)[C@H](O[C@H]6C[C@@H](O)[C@H](O[C@H]7C[C@@H](O)[C@H](O)[C@@H](C)O7)[C@@H](C)O6)[C@@H](C)O5)c(O)c4c(=O)c2c1O)[C@H](O)[C@H]3O | 2
CCC[C@@H]1Cc2cc3c(c(O)c2C(=O)O1)-c1c(c(OC)c2oc4ccc(O[C@H]5C[C@@H](O)[C@H](O)[C@@H](C)O5)c(O)c4c(=O)c2c1O)[C@H](O)[C@H]3O | 2
CCC[C@@H]1Cc2cc3c(c(O)c2C(=O)O1)-c1c(c(OC)c2oc4ccc(O[C@H]5C[C@@H](O)[C@H](O[C@H]6C[C@@H](O)[C@H](O[C@H]7C[C@@H](OC)[C@H](O)[C@@H](C)O7)[C@@H](C)O6)[C@@H](C)O5)c(O)c4c(=O)c2c1O)[C@H](O)[C@H]3O | 2

Now consider a different compound.
Ask: Tell me the measured MIC of CCC[C@@H]1Cc2cc3c(c(O)c2C(=O)O1)-c1c(c(OC)c2oc4ccc(O[C@H]5C[C@@H](O)[C@H](O[C@H]6C[C@@H](O)[C@H](O[C@H]7C[C@@H](OC)[C@H](O)[C@@H](C)O7)[C@@H](C)O6)[C@@H](C)O5)c(O)c4c(=O)c2c1O)C[C@H]3O , please.
Reply: 0.5

This collection of values is drawn from ChEMBL document CHEMBL5532714.
